Experiment: Hepatotoxicity in human HepG2 cells assessed as cell viability at 30 uM by MTT assay relative to control
Type: toxicity, cell-based
Conditions: read-out: Activity
readoutLabel: viability at 30 µM (%)
One number for each entry, in %.

compound: C#CCN(Cc1ccc(O)c2ncccc12)C(C#N)CCC1CCN(Cc2ccccc2)CC1 (racemic)
measureUnit: %
viability at 30 µM: 92.4

Consider the compound shown here: COc1cc2c(cc1OC)C(=O)C(CC1CCN(Cc3ccccc3)CC1)C2 (configuration not stated) What is its recorded viability at 30 µM?
83.5

* * *

Experiment: Effective permeability across human intestinal membrane by Ussing chamber technique
Could you please report measured Papp for the items listed next?

Known Papp results, listed for orientation:
molecule: C#CCN(Cc1ccc(O)c2ncccc12)C1CCN(Cc2ccccc2)CC1
readoutLabel: Papp
result: 447 ×10⁻⁶ cm/s
--
molecule: C#CCN(C)Cc1ccc(O)c2ncccc12
readoutLabel: Papp
result: 250 ×10⁻⁶ cm/s

Each of the following entries comes with a recorded value; kindly state Papp for each.
1. C#CCN(Cc1ccc(O)c2ncccc12)C(C#N)CC1CCN(Cc2ccccc2)CC1 (racemic)
2. C#CCN(Cc1ccc(O)c2ncccc12)CC1CCN(Cc2ccccc2)CC1
3. C#CCN(CCC1CCN(Cc2ccccc2)CC1)Cc1ccc(O)c2ncccc12
4. C#CCN(Cc1ccc(O)c2ncccc12)C(C#N)CCC1CCN(Cc2ccccc2)CC1 (racemic)
5. C#CCN(CCCC1CCN(Cc2ccccc2)CC1)Cc1ccc(O)c2ncccc12
6. C#CCN(Cc1ccc(O)c2ncccc12)C(C#N)C1CCN(Cc2ccccc2)CC1 (racemic)

1: 375 ×10⁻⁶ cm/s; 2: 499 ×10⁻⁶ cm/s; 3: 559 ×10⁻⁶ cm/s; 4: 418 ×10⁻⁶ cm/s; 5: 624 ×10⁻⁶ cm/s; 6: 336 ×10⁻⁶ cm/s

* * *

Biological target: Acetylcholinesterase (Electrophorus electricus, UniProt O42275)
Sequence (O42275 whole entry): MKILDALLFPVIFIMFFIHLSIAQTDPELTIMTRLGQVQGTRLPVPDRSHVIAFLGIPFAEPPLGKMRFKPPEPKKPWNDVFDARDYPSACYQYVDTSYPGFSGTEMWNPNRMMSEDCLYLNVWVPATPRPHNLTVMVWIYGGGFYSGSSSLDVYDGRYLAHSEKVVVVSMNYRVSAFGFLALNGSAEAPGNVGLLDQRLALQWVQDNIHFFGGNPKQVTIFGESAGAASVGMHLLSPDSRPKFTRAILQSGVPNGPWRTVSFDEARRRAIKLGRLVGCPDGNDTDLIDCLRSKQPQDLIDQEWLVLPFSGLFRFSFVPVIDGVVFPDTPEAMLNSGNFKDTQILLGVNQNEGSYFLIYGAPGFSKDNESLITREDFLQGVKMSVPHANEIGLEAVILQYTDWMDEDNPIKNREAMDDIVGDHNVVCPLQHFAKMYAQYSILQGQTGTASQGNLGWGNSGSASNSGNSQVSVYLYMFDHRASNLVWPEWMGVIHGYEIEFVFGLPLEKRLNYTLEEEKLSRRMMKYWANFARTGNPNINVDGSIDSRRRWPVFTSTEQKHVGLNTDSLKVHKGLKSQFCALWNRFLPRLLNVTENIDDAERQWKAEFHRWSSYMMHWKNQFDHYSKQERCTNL
pIC50: −log10 of the molar value.
What pIC50 was measured for each of the following?

Solved entries (count: 4):
molecule: C#CCN(C)CCCOc1ccc(Cl)cc1Cl
studyTarget: Acetylcholinesterase (Electrophorus electricus, UniProt O42275)
result: ≤ 3.30

molecule: C#CCN(Cc1ccc(O)c2ncccc12)C1CCN(Cc2ccccc2)CC1
studyTarget: Acetylcholinesterase (Electrophorus electricus, UniProt O42275)
result: ≤ 4.00

molecule: C#CCN(C)[C@H](C)Cc1ccccc1
studyTarget: Acetylcholinesterase (Electrophorus electricus, UniProt O42275)
result: ≤ 3.30

molecule: C#CCN(Cc1ccc(O)c2ncccc12)C(C#N)CCC1CCN(Cc2ccccc2)CC1 (racemic)
studyTarget: Acetylcholinesterase (Electrophorus electricus, UniProt O42275)
result: 5.74

Please find the next molecule below.
Which measured pIC50 value corresponds to "C#CCN(C)Cc1ccc(O)c2ncccc12" ?
≤ 4.00

* * *

Target: Cholinesterase (Equus caballus, UniProt P81908)
Sequence (P81908 whole entry): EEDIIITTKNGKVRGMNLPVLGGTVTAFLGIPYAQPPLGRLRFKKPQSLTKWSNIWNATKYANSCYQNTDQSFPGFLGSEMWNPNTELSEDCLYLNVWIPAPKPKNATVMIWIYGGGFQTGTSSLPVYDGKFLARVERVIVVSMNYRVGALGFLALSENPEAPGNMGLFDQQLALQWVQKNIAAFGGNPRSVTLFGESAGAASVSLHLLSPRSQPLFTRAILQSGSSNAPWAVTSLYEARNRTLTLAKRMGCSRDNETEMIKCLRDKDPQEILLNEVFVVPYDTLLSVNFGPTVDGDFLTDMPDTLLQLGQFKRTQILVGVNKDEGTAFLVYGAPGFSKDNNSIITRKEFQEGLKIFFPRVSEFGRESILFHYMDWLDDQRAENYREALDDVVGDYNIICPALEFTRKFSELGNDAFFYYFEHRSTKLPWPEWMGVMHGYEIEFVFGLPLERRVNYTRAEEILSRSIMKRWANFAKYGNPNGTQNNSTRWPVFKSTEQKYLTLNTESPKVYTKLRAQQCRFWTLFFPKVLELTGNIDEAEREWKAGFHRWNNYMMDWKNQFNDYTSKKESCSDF
Test: Inhibition of equine serum BuChE using butyrylthiocholine iodide as substrate preincubated for 20 mins followed by substrate addition measured after 25 mins by Ellman's method
pIC50: −log10 of the molar value.
readoutLabel: pIC50

Observe how each entry below is paired with its result.
compound: C#CCN(Cc1ccc(O)c2ncccc12)C1CCN(Cc2ccccc2)CC1
pIC50: ≤ 4.00
//
compound: C#CCN(Cc1ccc(O)c2ncccc12)C(C#N)CCC1CCN(Cc2ccccc2)CC1 (racemic)
pIC50: 5.80

Would you kindly share the measured pIC50 for "C#CCN(C)CCCOc1ccc(Cl)cc1Cl" ?
≤ 3.30

* * *

Assay: Drug absorption in human intestine
Task for the reader: assign each of the following compounds its reported Fa.
Give bare numbers, in %.

Here are 3 compounds together with their reported answers.
compound: C#CCN(Cc1ccc(O)c2ncccc12)C(C#N)C1CCN(Cc2ccccc2)CC1 (racemic)
Fa [%]: 96.8
//
compound: C#CCN(CCC1CCN(Cc2ccccc2)CC1)Cc1ccc(O)c2ncccc12
Fa [%]: 96.9
//
compound: COc1cc2c(cc1OC)C(=O)C(CC1CCN(Cc3ccccc3)CC1)C2 (centres undefined)
Fa [%]: 98

Please report the recorded Fa for "C#CCN(Cc1ccc(O)c2ncccc12)CC1CCN(Cc2ccccc2)CC1" .
96.8

* * *

Target: Amine oxidase [flavin-containing] B (Rattus norvegicus, UniProt P19643)
Sequence (P19643 whole entry): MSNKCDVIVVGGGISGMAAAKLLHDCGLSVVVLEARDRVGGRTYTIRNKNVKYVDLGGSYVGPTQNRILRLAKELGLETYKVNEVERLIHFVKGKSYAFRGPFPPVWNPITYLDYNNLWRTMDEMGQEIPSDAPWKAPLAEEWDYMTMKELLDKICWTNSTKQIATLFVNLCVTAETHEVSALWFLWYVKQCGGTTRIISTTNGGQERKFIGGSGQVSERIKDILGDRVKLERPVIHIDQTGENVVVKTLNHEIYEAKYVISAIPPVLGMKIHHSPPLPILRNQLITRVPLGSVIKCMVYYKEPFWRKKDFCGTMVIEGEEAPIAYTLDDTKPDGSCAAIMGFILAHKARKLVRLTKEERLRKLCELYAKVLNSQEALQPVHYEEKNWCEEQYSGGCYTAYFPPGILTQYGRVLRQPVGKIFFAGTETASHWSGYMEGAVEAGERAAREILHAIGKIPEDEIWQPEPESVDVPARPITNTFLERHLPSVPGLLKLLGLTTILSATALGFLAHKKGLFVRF
Test: Inhibition of MAO-B in rat liver homogenate using [14C]-phenylethylamine as substrate preincubated for 30 mins followed by substrate addition measured after 4 mins by liquid scintillation counting analysis
Type: tissue-based
readoutLabel: pIC50
Numbers only, as −log10 of the molar value.

Bench note: what pIC50 did "C#CCN(C)Cc1ccc(O)c2ncccc12" show?
5.82

* * *

Give Papp for every item shown.
Assay: Permeability in human Caco2 cells
Details: Caco-2
Numbers only, in ×10⁻⁶ cm/s.

// below: answered compounds
compound: C#CCN(Cc1ccc(O)c2ncccc12)C(C#N)C1CCN(Cc2ccccc2)CC1 (racemic)
readoutLabel: Papp
readoutNumber: 4.93
//
compound: C#CCN(Cc1ccc(O)c2ncccc12)C(C#N)CC1CCN(Cc2ccccc2)CC1 (racemic)
readoutLabel: Papp
readoutNumber: 5.2

Count: 4. Required value per item: Papp.
1. C#CCN(CCCC1CCN(Cc2ccccc2)CC1)Cc1ccc(O)c2ncccc12
2. C#CCN(Cc1ccc(O)c2ncccc12)C(C#N)CCC1CCN(Cc2ccccc2)CC1 (racemic)
3. C#CCN(CCC1CCN(Cc2ccccc2)CC1)Cc1ccc(O)c2ncccc12
4. C#CCN(Cc1ccc(O)c2ncccc12)C1CCN(Cc2ccccc2)CC1

1. 5.41
2. 5.44
3. 5.44
4. 4.57

Batch lookup, Papp per entry.
1. C#CCN(C)Cc1ccc(O)c2ncccc12
2. C#CCN(Cc1ccc(O)c2ncccc12)CC1CCN(Cc2ccccc2)CC1

1: 4.29; 2: 5.23

* * *

Would you kindly list Papp for each of these molecules?
Assay: Apparent permeability in MDCK cells
Settings: dog
Answers are plain numbers, in ×10⁻⁶ cm/s.

Past entries and their recorded results:
molecule: C#CCN(CCCC1CCN(Cc2ccccc2)CC1)Cc1ccc(O)c2ncccc12
Papp [×10⁻⁶ cm/s]: 30.2
--
molecule: C#CCN(CCC1CCN(Cc2ccccc2)CC1)Cc1ccc(O)c2ncccc12
Papp [×10⁻⁶ cm/s]: 31.3
--
molecule: C#CCN(Cc1ccc(O)c2ncccc12)C(C#N)C1CCN(Cc2ccccc2)CC1 (racemic)
Papp [×10⁻⁶ cm/s]: 34.8

Take each entry in turn and give its Papp.
1. C#CCN(C)Cc1ccc(O)c2ncccc12
2. C#CCN(Cc1ccc(O)c2ncccc12)C(C#N)CCC1CCN(Cc2ccccc2)CC1 (racemic)
3. C#CCN(Cc1ccc(O)c2ncccc12)CC1CCN(Cc2ccccc2)CC1
4. C#CCN(Cc1ccc(O)c2ncccc12)C1CCN(Cc2ccccc2)CC1
5. C#CCN(Cc1ccc(O)c2ncccc12)C(C#N)CC1CCN(Cc2ccccc2)CC1 (racemic)

1: 42.9; 2: 30.6; 3: 32.6; 4: 35.1; 5: 32.2

* * *

For each of the compounds below, state its viability at 1000 µM.
Assay: Hepatotoxicity in human HepG2 cells assessed as cell viability at 1000 uM by MTT assay relative to control
Type: toxicity, cell-based
Conditions: read-out: Activity
Give bare numbers, in %.

compound: C#CCN(Cc1ccc(O)c2ncccc12)C(C#N)CCC1CCN(Cc2ccccc2)CC1 (racemic)
measureUnit: %
readoutNumber: 51.5

API: the following record is the query input.
Quick one: viability at 1000 µM for COc1cc2c(cc1OC)C(=O)C(CC1CCN(Cc3ccccc3)CC1)C2 (configuration not stated) ?
40.9

* * *

Would you mind telling me the reported fraction unbound of each entry?
Test: Protein binding in plasma (unknown origin)

Would you please look over these solved cases?
compound: C#CCN(Cc1ccc(O)c2ncccc12)C(C#N)C1CCN(Cc2ccccc2)CC1 (racemic)
fraction unbound: 0.197

compound: C#CCN(CCCC1CCN(Cc2ccccc2)CC1)Cc1ccc(O)c2ncccc12
fraction unbound: 0.226

compound: C#CCN(Cc1ccc(O)c2ncccc12)C(C#N)CC1CCN(Cc2ccccc2)CC1 (racemic)
fraction unbound: 0.216

List the reported fraction unbound of each compound below.
1. C#CCN(C)Cc1ccc(O)c2ncccc12
2. C#CCN(Cc1ccc(O)c2ncccc12)C1CCN(Cc2ccccc2)CC1
3. C#CCN(Cc1ccc(O)c2ncccc12)C(C#N)CCC1CCN(Cc2ccccc2)CC1 (racemic)
4. COc1cc2c(cc1OC)C(=O)C(CC1CCN(Cc3ccccc3)CC1)C2 (centres undefined) [DONEPEZIL]
5. C#CCN(CCC1CCN(Cc2ccccc2)CC1)Cc1ccc(O)c2ncccc12
6. C#CCN(Cc1ccc(O)c2ncccc12)CC1CCN(Cc2ccccc2)CC1

[0.31, 0.273, 0.2, 0.154, 0.229, 0.236]

* * *

Please provide measured viability at 300 µM for the entries that follow.
Experiment: Hepatotoxicity in human HepG2 cells assessed as cell viability at 300 uM by MTT assay relative to control
Type: toxicity, cell-based
Conditions: read-out: Activity

compound: C#CCN(Cc1ccc(O)c2ncccc12)C(C#N)CCC1CCN(Cc2ccccc2)CC1 (racemic)
result: 71.4%

// moving on: another record for viability at 300 µM
Please give the measured viability at 300 µM for this compound: COc1cc2c(cc1OC)C(=O)C(CC1CCN(Cc3ccccc3)CC1)C2 (configuration not stated) [DONEPEZIL]
53.4%
